Known Emax of a selection of compounds
Target: M1 muscarinic receptor (Homo sapiens)
Construct: expressed in transfected cells; host or cells: CHO
Sequence (P11229 1-460): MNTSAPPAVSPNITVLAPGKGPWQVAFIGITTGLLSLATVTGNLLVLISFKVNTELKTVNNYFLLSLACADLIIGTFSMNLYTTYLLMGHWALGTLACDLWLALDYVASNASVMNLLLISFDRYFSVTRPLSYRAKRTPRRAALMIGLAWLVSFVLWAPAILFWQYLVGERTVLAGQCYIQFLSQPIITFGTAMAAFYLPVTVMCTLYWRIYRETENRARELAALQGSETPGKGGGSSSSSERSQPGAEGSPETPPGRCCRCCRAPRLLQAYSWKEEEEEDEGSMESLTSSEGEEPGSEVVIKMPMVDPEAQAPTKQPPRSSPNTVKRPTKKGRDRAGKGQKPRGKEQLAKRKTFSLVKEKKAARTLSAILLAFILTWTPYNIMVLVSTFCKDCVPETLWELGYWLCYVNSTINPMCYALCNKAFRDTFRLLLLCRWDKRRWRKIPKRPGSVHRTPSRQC
Test: Functional mobilization of intracellular calcium (FLIPR) in CHO cells expressing M1
Assay type: cell-based
Conditions: CHO; 100% efficacy is the maximum response obtained with the Carbachol control
Method: Functional Mobilization of Intracellular Calcium to Determine Muscarinic Receptor Activity: […] Compounds are prepared at a 2× fold concentration in a 96-well plate (round bottom, Costar Corning cat#3656), by reconstituting the pre-spotted compounds in bath 1 containing 1 mM probenecid. […] In both assay modes, the fluorescence is recorded for 60 sec (excitation wavelength is […] and emission wavelength 540 nm) using the FLIPR 3 instrument. […]

> print(dat)
                                   compound                            measured.on  test.result
1  CC(C)(C)CCN1CCC2(CCCN(C(N)=O)c3ccccc32)CC1 [Compound 13]  M1 muscarinic receptor (Homo sapiens)   25 to 100%

# input Tell me Emax reported for O=C1CCC2(CCN(C3CCCCCC3)CC2)c2ccccc2N1 [Compound 24]
# output 25 to 100%

# input Tell me Emax reported for NC(=O)N1CCCC2(CCN(CC3CCCCC3)CC2)c2ccccc21 [Compound 20]
# output < 25%

# input Tell me Emax reported for CCOC(=O)N1CCC(N2CCC3(CCCN(C(=O)N(C)C)c4ccccc43)CC2)CC1 [Compound 23]
# output 25 to 100%

# input Tell me Emax reported for CN(C)C(=O)N1CCCC2(CCN(CCC(C)(C)C)CC2)c2ccccc21 [Compound 31]
# output < 25%

# input Tell me Emax reported for CC(C)(C)CCN1CCC2(CCC(=O)Nc3ccccc32)CC1 [Compound 36]
# output 25 to 100%

# input Tell me Emax reported for CCOC(=O)N1C2CCC1CC(N1CCC3(CCCN(C(N)=O)c4ccccc43)CC1)C2 (stereo not drawn) [Compound 22]
# output 25 to 100%

# input Tell me Emax reported for NC(=O)N1CCCC2(CCN(CC3CC4C=CC3C4)CC2)c2ccccc21 (stereo not drawn) [Compound 2]
# output < 25%

# input Tell me Emax reported for CC(=O)N1CCCC2(CCN(CC3CCCCC3)CC2)c2ccccc21 [Compound 7]
# output < 25%

# input Tell me Emax reported for CCOC(=O)N1CCC(N2CCC3(CCCN(C(C)=O)c4ccccc43)CC2)CC1 [Compound 14]
# output 25 to 100%

# input Tell me Emax reported for CN(C)C(=O)N1CCCC2(CCN(C3C[C@@H]4CC[C@@H]3C4)CC2)c2ccccc21 (stereo partly drawn) [Compound 33]
# output < 25%

# input Tell me Emax reported for CN(C)C(=O)N1CCCC2(CCN(C3CCCCCC3)CC2)c2ccccc21 [Compound 11]
# output < 25%
